Assay: self-splicing fitness, log relative to wild type (ln ratio); higher = more splicing; Tetrahymena group I intron in knt gene, E. coli kanamycin selection, DiMSum; sequences stand for … in CUCUCU…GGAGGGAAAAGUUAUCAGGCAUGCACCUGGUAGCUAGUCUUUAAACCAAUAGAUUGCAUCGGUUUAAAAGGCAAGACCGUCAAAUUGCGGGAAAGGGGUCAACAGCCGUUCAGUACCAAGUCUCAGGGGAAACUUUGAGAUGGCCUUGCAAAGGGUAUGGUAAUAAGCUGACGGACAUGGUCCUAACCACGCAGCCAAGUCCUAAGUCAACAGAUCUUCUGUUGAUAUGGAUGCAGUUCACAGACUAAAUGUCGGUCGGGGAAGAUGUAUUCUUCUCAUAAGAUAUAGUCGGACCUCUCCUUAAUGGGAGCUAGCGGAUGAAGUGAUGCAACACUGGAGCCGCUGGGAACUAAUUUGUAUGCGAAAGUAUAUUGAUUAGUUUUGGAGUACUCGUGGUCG;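 further: selection with 25 µg/mL kanamycin versus none on LB agar overnight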
Conditions: 37 °C
We begin with a simple list: items and their reported self-splicing fitness (ln).
REPORTED ENDPOINT: self-splicing fitness (ln)

| ITEM SEQUENCE | MEASURED NUMBER |
| --- | --- |
| AAGUAGCAAUAUUACGUGCC | -0.766 |
| CUACAGCAAUAUUACGCGAA | -3.89 |
| UCAAAGCAAUAUUACGGAGA | -1.61 |
| AUAAAGCAAUAUUACGUCGG | -0.774 |
| AGGAAGCAAUAUUACGAAUG | -2.8 |
| UAACAGCAAUAUUACGGCAC | -1.63 |
| CGAAAGCAAUAUUACGGAAU | -2.15 |
| GUCCAGCAAUAUUACGAAUG | -1.31 |
| CUCAAGCAAUAUUACGCGUG | -3.41 |
| ACCGAGCAAUAUUACGAUCU | -0.405 |
| GUCGAGCAAUAUUACGUUAG | -1.2 |
| GACUAGCAAUAUUACGAGCC | -0.877 |
| CACCAGCAAUAUUACGGAUG | -1.84 |
| AAUCAGCAAUAUUACGCCUG | 0.165 |
| GUCCAGCAAUAUUACGGCCA | -0.279 |
| UUCCAGCAAUAUUACGACGC | -3.03 |
| ACUCAGCAAUAUUACGACUG | -1.47 |
| UAUGAGCAAUAUUACGUGGA | -3.47 |
| GAACAGCAAUAUUACGUAUG | -0.888 |
| GAUAAGCAAUAUUACGAUUG | -1.82 |
| CCAUAGCAAUAUUACGUUAU | -3.31 |
| GCUUAGCAAUAUUACGUUGG | -0.814 |
| CUGCAGCAAUAUUACGCAUG | -1.8 |
| ACGAAGCAAUAUUACGGUUC | -0.86 |
| GCGAAGCAAUAUUACGUUGC | -1.98 |
| GAUAAGCAAUAUUACGUAAA | -1.19 |
| ACUUAGCAAUAUUACGCCUG | -0.484 |
| UCUAAGCAAUAUUACGACCC | -0.661 |
| CAGAAGCAAUAUUACGGUAA | -2.49 |
| GAAGAGCAAUAUUACGCACC | 0.037 |
| GCUGAGCAAUAUUACGUCAU | -0.856 |
| GAUAAGCAAUAUUACGAAAU | -1.11 |
| GCUAAGCAAUAUUACGCGUG | -1.44 |
| GGCUAGCAAUAUUACGAUCU | 0.129 |
